Molecular target: O-acyltransferase (Oryctolagus cuniculus, UniProt G1SFD9)
Sequence (G1SFD9 1-524): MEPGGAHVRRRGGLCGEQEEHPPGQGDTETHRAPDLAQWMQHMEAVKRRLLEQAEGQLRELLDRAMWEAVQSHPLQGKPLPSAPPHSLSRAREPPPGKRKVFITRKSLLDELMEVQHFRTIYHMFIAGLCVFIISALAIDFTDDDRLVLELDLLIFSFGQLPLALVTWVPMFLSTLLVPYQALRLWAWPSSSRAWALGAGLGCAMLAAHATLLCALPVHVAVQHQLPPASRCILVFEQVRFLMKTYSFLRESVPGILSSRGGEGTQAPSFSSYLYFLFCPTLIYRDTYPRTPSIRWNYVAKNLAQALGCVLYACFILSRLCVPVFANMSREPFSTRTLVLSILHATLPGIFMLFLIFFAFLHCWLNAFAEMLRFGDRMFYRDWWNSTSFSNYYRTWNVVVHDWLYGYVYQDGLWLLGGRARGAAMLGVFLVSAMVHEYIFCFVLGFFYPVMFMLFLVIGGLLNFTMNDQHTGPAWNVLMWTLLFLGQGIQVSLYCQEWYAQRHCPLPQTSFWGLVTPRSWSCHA
Experiment: Acyl coenzyme A:cholesterol acyltransferase (ACAT), inhibition by incubation with [1-14C]oleolyl-CoA and intestinal microsomes isolated from intestinal mucosa of cholesterol-fed rabbits
Experimental endpoint: IC50 (nM)

Molecule	Result modifier	Val
CCCCCCCCCCCCCCCCCCNC(=O)Nc1c(C)cccc1Cl	=	1100
CCCCCCCCCCCCCCCCCCSC(=O)Nc1c(OC)cc(OC)cc1OC	=	5700
CCCCCCCC/C=C\CCCCCCCCNC(=O)Nc1ccc(F)cc1F	=	4700
CCCCCCCCCCCCCCCCCC[S+]([O-])c1c(C)cccc1C (centres undefined)	>	10000
CCCCCCCCCCCCCCCCCCNC(=O)Sc1c(C)cccc1C	=	2460
CCCCCCCCCCNC(=O)Nc1c(C)cccc1C(C)C	=	210
CNC(=O)Nc1c(C(C)C)cccc1C(C)C	>	5000
CCCCCCCCCCC(C)(C)NC(=O)Nc1c(CC)cccc1CC	=	52
CCCCCCCC/C=C\CCCCCCCCNC(=O)Nc1c(CC)cccc1C(C)C	=	37
CCCCCCCC/C=C/CCCCCCCC(=O)Nc1c(OC)cc(OC)cc1OC	=	44
CCCCCCCC/C=C\CCCCCCCCNC(=O)Nc1c(C)cccc1Cl	=	180
CCCCCCCCCCCCCCNC(=O)Nc1c(CC)cccc1CC	=	21
CCCCCCCC/C=C\CCCCCCCC(=O)NCc1c(OC)cc(OC)cc1OC	=	6800
CCCCCCCCCCCCCCNC(=O)Nc1c(F)cc(F)cc1F	=	250
CCCCCCCC/C=C\CCCCCCCCNC(=O)Nc1c(Cl)cc(Cl)cc1Cl	=	1200
CCCCCCCCCCCCCCCCC(C)(C)CNC(=O)Nc1c(C(C)C)cccc1C(C)C	=	73
CCCCCCCCCCC(CC)(CC)CNC(=O)Nc1c(C(C)C)cccc1C(C)C	=	50
CCCCCCCCCCCCCCCCCCSC(=O)Nc1c(C)cccc1C	>	10000
CCCCCCCCCCNC(=O)Nc1c(CC)cccc1C(C)C	=	87
CCCCCCCCCCCCCCCCCCSc1c(C)cccc1C	>	10000
CCCCCCCCCC(C)(C)CNC(=O)Nc1c(C(C)C)cccc1C(C)C	=	46
CCCCCCCC/C=C\CCCCCCCCNCc1c(OC)cc(OC)cc1OC	>	100000
CCCCCCCC/C=C\CCCCCCCCNC(=O)Nc1c(OC)cc(OC)cc1OC	=	320
CCCCCCCC/C=C\CCCCCCCCNC(=O)Nc1ccc(C)cc1C	>	5000
